experiment: The drug is tested on Bacteroides coprophilus strain: DSM18228 for biotransformation. The drug concentrations were measured before and after a 12-h incubation by liquid-chromatography-coupled mass spectrometry (LC–MS); details: 2 µM
Non-standard residues stand in square brackets, D forms with d. Residues, ends and D or L forms follow the SMILES beside them. pGlu = O=C1CC[C@@H](C(=O)O)N1; Thz = O=C(O)[C@@H]1CSCN1
value type: Bacterial Biotransformation

{"compound": "CCOc1ccccc1OCCN[C@H](C)Cc1ccc(OC)c(S(N)(=O)=O)c1.Cl [TAMSULOSIN HYDROCHLORIDE]", "value type": "Bacterial Biotransformation", "result": "Compound NOT metabolized"}
{"compound": "CNC(=C[N+](=O)[O-])NCCSCc1csc(CN(C)C)n1", "value type": "Bacterial Biotransformation", "result": "Compound NOT metabolized"}
{"compound": "CCc1nn(CCCN2CCN(c3cccc(Cl)c3)CC2)c(=O)n1CCOc1ccccc1", "value type": "Bacterial Biotransformation", "result": "Compound NOT metabolized"}
{"compound": "CCCc1nn(C)c2c(=O)[nH]c(-c3cc(S(=O)(=O)N4CCN(C)CC4)ccc3OCC)nc12.O=C(O)CC(O)(CC(=O)O)C(=O)O [SILDENAFIL CITRATE]", "value type": "Bacterial Biotransformation", "result": "Compound metabolized"}
{"compound": "O=C1CC[C@@H](C(=O)N2CSC[C@H]2C(=O)O)N1 [PIDOTIMOD] ([pGlu]-[Thz]-OH)", "value type": "Bacterial Biotransformation", "result": "Compound metabolized"}
{"compound": "O=c1[nH]c2ccccc2n1C1CCN(CCCC(c2ccc(F)cc2)c2ccc(F)cc2)CC1 [PIMOZIDE]", "value type": "Bacterial Biotransformation", "result": "Compound NOT metabolized"}
{"compound": "COC(=O)Nc1nc2ccc(C(=O)c3ccccc3)cc2[nH]1", "value type": "Bacterial Biotransformation", "result": "Compound NOT metabolized"}
